Assay: AUC/dose in C57BL/6J mouse plasma at 3 mg/kg, iv administered as single dose by LC-MS/MS analysis
Type: ADME, organism-based
Conditions: in vivo
readout label: AUC/dose (nM·kg·h/mg)

For orientation, consider the following solved cases.
* CC(C)(O)C1CCN(CCOc2ccc3c(c2)Cc2cccc(-c4cc(=O)cc(N5CCOCC5)o4)c2S3)CC1 | 950
* COc1ccc2c(c1)C1(CCOCC1)c1cccc(-c3cc(=O)cc(N4CCOCC4)o3)c1S2 | 1500

[1] O=c1cc(-c2cccc3c2Sc2ccc(O[C@@H]4CCN(CC(F)F)C4)cc2C3)oc(N2CCOCC2)c1
[2] COC[C@H]1c2cc(OC)ccc2Sc2c(-c3cc(=O)cc(N4CCOCC4)o3)cccc21
[3] COc1ccc2c(c1)Cc1cccc(-c3cc(=O)cc(N4CCOCC4)o3)c1S2
Prompt line: Task field, ranking: reported AUC/dose, descending order. Answer format: list of labels, ordered as asked.
Response line: 3, 1, 2

[A] COC[C@@H](C)Oc1ccc2c(c1)Cc1cccc(-c3cc(=O)cc(N4CCOCC4)o3)c1S2
[B] C[C@H](CN1C[C@@H](C)O[C@@H](C)C1)Oc1ccc2c(c1)Cc1cccc(-c3cc(=O)cc(N4CCOCC4)o3)c1S2
Prompt line: Sorting by AUC/dose in descending order, would A or B appear first? Respond using the label that marks the chosen record.
Response line: A

====

Assay: Volume of distribution at steady state in C57BL/6J mouse at 3 mg/kg, iv administered as single dose by LC-MS/MS analysis
Format: ADME, organism-based
Conditions: in vivo, read-out: Vdss
readout label: Vd (L/kg)

Would you please look over these solved cases?
• O=c1cc(-c2cccc3c2Sc2ccc(OC4COC4)cc2C3)oc(N2CCOCC2)c1 = 1.6
• COC[C@H]1c2cc(OC)ccc2Sc2c(-c3cc(=O)cc(N4CCOCC4)o3)cccc21 = 3
• C[C@H](CN1C[C@@H](C)O[C@@H](C)C1)Oc1ccc2c(c1)Cc1cccc(-c3cc(=O)cc(N4CCOCC4)o3)c1S2 = 2.3
• O=c1cc(-c2cccc3c2Sc2ccc(O[C@@H]4CCN(CC(F)F)C4)cc2C3)oc(N2CCOCC2)c1 = 2.6
• CC(C)(O)C1CCN(CCOc2ccc3c(c2)Cc2cccc(-c4cc(=O)cc(N5CCOCC5)o4)c2S3)CC1 = 4.2
• COc1ccc2c(c1)Cc1cccc(-c3cc(=O)cc(N4CCOCC4)o3)c1S2 = 1.6

[I] COc1ccc2c(c1)C1(CCOCC1)c1cccc(-c3cc(=O)cc(N4CCOCC4)o3)c1S2
[II] COC[C@@H](C)Oc1ccc2c(c1)Cc1cccc(-c3cc(=O)cc(N4CCOCC4)o3)c1S2
Prompt line: Would you kindly point out which of I and II has the smaller Vd figure? Your answer should be the label attached to the chosen record.
Response line: II
(II: 1.9 L/kg, I: 3 L/kg)

====

Experiment: Kinetic solubility in pH 7.4 PBS buffer by LC-UV assay
Format: physicochemical
Conditions: read-out: Kinetic_solubility
readout label: solubility kinetic (µg/mL)

The following molecules have reported results that may help.
* O=c1cc(-c2cccc3c2Sc2ccc(OC4CN(CC(F)F)C4)cc2C3)oc(N2CCOCC2)c1 | 12
* O=c1cc(-c2cccc3c2Sc2ccc(OCCN4C[C@H]5C[C@@H]4CO5)cc2C3)oc(N2CCOCC2)c1 (relative stereo) | 82
* CN1CCN(CCOc2ccc3c(c2)Cc2cccc(-c4cc(=O)cc(N5CCOCC5)o4)c2S3)CC1 | 92
* O=c1cc(-c2cccc3c2Sc2ccc(OCCN4CC(F)C4)cc2C3)oc(N2CCOCC2)c1 | 46
* C[C@@H]1CN(C[C@H](C)Oc2ccc3c(c2)Cc2cccc(-c4cc(=O)cc(N5CCOCC5)o4)c2S3)C[C@H](C)O1 | 27
* O=C(Nc1ccc2c(c1)Cc1cccc(-c3cc(=O)cc(N4CCOCC4)o3)c1S2)C1CC1 | 5

[1] COc1ccc2c(c1)Cc1cccc(-c3cc(=O)cc(N4CCOCC4)o3)c1S2
[2] CN1CC[C@@H](Oc2ccc3c(c2)Cc2cccc(-c4cc(=O)cc(N5CCOCC5)o4)c2S3)C1
Prompt line: Dear colleague, could you let me know whether 1 or 2 has the lower recorded solubility kinetic? Thanks. Please reply using the label of the selected record.
Response line: 1
(1: 11 µg/mL, 2: 84 µg/mL)

====

Assay: AUC/dose in C57BL/6J mouse brain at 3 mg/kg, iv administered as single dose by LC-MS/MS analysis
Format: ADME, organism-based
Details: in vivo
readout label: AUC/dose (nM·kg·h/mg)

• O=c1cc(-c2cccc3c2Sc2ccc(O[C@@H]4CCN(CC(F)F)C4)cc2C3)oc(N2CCOCC2)c1 = 380
• COC[C@H]1c2cc(OC)ccc2Sc2c(-c3cc(=O)cc(N4CCOCC4)o3)cccc21 = 430

[1] CC(C)(O)C1CCN(CCOc2ccc3c(c2)Cc2cccc(-c4cc(=O)cc(N5CCOCC5)o4)c2S3)CC1
[2] O=c1cc(-c2cccc3c2Sc2ccc(OC4COC4)cc2C3)oc(N2CCOCC2)c1
[3] COc1ccc2c(c1)Cc1cccc(-c3cc(=O)cc(N4CCOCC4)o3)c1S2
Prompt line: // ranking: key=AUC/dose, reverse=True Write out the labels following the order that was asked for.
Response line: 3, 2, 1

====

Assay: Tmax in C57BL/6J mouse plasma at 30 mg/kg, po by LC-MS/MS analysis
Format: ADME, organism-based
readout label: Tmax (min)
# output: bare number, implied unit min

Prompt line: # input compound: COc1ccc2c(c1)Cc1cccc(-c3cc(=O)cc(N4CCOCC4)o3)c1S2 ; wanted: its Tmax
Response line: 15

====

Experiment: Ratio of AUC/dose in brain to plasma of C57BL/6J mouse at 100 mg/kg, po administered as single dose by LC-MS/MS analysis
Type: ADME, organism-based
Settings: brain and plasma, read-out: BPR
readout label: Kp
Just the number, please, no unit attached.

Prompt line: May I ask what Kp has been recorded for COc1ccc2c(c1)Cc1cccc(-c3cc(=O)cc(N4CCOCC4)o3)c1S2 ?
Response line: 1.4

====

Experiment: Oral bioavailability in C57BL/6J mouse plasma at 10 mg/kg by LC-MS/MS analysis
Type: ADME, organism-based
readout label: bioavailability (%)
Write down the numeric answer in % and omit the unit.

Prompt line: Name the recorded bioavailability for COc1ccc2c(c1)Cc1cccc(-c3cc(=O)cc(N4CCOCC4)o3)c1S2 .
Response line: 89

====

Assay: Unbound brain-to-plasma concentration ratio in C57BL/6J mouse at 10 mg/kg, po administered as single dose by LC-MS/MS analysis
Format: ADME, organism-based
Conditions: brain and plasma, read-out: K(p,uu,brain)
readout label: Kp uu
# answer = number (no unit)

Prompt line: What does the record list as Kp uu for COc1ccc2c(c1)Cc1cccc(-c3cc(=O)cc(N4CCOCC4)o3)c1S2 ?
Response line: 0.45

====

Test: Kinetic solubility in pH 7.4 PBS buffer by LC-UV assay
Type: physicochemical
Conditions: read-out: Kinetic_solubility
readout label: solubility kinetic (mg/mL)

Look over these answered cases.
* C[C@@H](CN1CCCC12COC2)Oc1ccc2c(c1)Cc1cccc(-c3cc(=O)cc(N4CCOCC4)o3)c1S2 | 0.021
* CCN1CC(Oc2ccc3c(c2)Cc2cccc(-c4cc(=O)cc(N5CCOCC5)o4)c2S3)C1 | 0.089
* O=c1cc(-c2cccc3c2Sc2ccc(OCCN4CCC(F)(F)C4)cc2C3)oc(N2CCOCC2)c1 | 0.003

[I] C[C@H](CN1CCOCC1)Oc1ccc2c(c1)Cc1cccc(-c3cc(=O)cc(N4CCOCC4)o3)c1S2
[II] O=C(CN1CCCC1)Nc1ccc2c(c1)Cc1cccc(-c3cc(=O)cc(N4CCOCC4)o3)c1S2
Prompt line: Which gives the smaller solubility kinetic number: I or II ? Answer with the label corresponding to your selection.
Response line: I

====

Test: Unbound brain-to-plasma concentration ratio in C57BL/6J mouse at 30 mg/kg, po administered as single dose by LC-MS/MS analysis
Type: ADME, organism-based
Conditions: brain and plasma, read-out: K(p,uu,brain)
readout label: Kp uu
A bare number is all that is needed in reply.

Prompt line: Consider the compound COc1ccc2c(c1)Cc1cccc(-c3cc(=O)cc(N4CCOCC4)o3)c1S2 and give its measured Kp uu.
Response line: 0.37

====

Assay: Tmax in C57BL/6J mouse brain at 30 mg/kg, po by LC-MS/MS analysis
Format: ADME, organism-based
readout label: Tmax (min)
Dear colleague, please return just the value in min, with no unit written.

Prompt line: Look up Tmax for this compound: COc1ccc2c(c1)Cc1cccc(-c3cc(=O)cc(N4CCOCC4)o3)c1S2
Response line: 30

====

Experiment: Oral bioavailability in C57BL/6J mouse plasma at 30 mg/kg by LC-MS/MS analysis
Format: ADME, organism-based
readout label: bioavailability (%)
A number alone suffices; assume %.

Prompt line: Query: bioavailability; subject: COc1ccc2c(c1)Cc1cccc(-c3cc(=O)cc(N4CCOCC4)o3)c1S2
Response line: 111
